tested_target: T1, human CD22, full length, on CHO-K1-human CD22 2C4 cells (human, UniProt P20273 20-847)
T1 construct: Full-length human CD22 (NCBI NP_001762.2) stably transfected into CHO-K1
T1 sequence: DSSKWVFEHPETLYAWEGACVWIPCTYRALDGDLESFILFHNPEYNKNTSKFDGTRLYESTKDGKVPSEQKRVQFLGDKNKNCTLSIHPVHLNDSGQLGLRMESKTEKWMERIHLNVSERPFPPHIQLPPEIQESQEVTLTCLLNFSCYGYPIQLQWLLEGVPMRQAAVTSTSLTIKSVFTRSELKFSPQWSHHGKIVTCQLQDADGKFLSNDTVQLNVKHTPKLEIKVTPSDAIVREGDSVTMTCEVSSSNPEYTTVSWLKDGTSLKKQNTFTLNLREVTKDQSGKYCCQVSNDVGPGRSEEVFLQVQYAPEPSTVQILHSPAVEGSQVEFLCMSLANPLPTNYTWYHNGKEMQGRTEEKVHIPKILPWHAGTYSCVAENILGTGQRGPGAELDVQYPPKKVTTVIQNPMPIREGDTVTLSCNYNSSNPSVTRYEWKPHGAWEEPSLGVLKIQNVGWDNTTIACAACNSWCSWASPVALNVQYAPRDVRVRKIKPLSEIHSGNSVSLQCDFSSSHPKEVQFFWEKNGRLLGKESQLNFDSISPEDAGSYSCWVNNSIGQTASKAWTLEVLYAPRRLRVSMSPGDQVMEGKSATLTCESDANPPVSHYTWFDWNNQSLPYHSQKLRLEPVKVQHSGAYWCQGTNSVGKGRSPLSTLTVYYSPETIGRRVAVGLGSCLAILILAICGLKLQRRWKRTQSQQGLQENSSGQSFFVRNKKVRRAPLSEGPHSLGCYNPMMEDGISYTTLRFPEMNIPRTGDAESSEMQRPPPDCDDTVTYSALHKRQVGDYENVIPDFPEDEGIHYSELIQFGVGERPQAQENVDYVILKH
procedure_summary: FACS, CHO-K1-human CD22 2C4 cells
Method: The required cells were scale-up cultured in a T-75 cell culture flask to the logarithmic growth phase. For the adherent cell CHO-K1, the medium was aspirated, the cells were washed 2 times with PBS buffer, and then digested with trypsin. After the digestion was terminated, the cells were washed 2 times with PBS buffer. […] Data analysis was performed by software (CellQuest) to obtain the mean fluorescence density (MFI)of the cells. […]
readout: pEC50
The value called pEC50 is obtained by taking minus log10 of the concentration in mol/L.

Quick one: give measured pEC50 for F1.216.2 human-murine chimeric antibody (antibody, human IgG1, kappa, V domains shown, Chimeric, human IgG1 / kappa) VH: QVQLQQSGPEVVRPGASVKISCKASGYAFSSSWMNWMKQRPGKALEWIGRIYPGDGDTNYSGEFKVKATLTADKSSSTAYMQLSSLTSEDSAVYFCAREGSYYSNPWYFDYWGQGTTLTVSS VL: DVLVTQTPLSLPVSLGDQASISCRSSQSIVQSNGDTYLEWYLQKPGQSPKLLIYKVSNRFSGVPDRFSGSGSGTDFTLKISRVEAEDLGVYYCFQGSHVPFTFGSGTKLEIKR 9.49

Quick one: give measured pEC50 for F1.7.6 human-murine chimeric antibody (antibody, human IgG1, kappa, V domains shown, Chimeric, human IgG1 / kappa; VL tied by name) VH: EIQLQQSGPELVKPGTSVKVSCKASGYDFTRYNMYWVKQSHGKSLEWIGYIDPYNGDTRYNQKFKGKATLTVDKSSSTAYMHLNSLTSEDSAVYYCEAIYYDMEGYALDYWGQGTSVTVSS VL: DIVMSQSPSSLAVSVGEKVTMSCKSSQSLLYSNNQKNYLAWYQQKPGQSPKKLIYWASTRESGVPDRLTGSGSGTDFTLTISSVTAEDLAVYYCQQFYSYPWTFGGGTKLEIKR 9.20

Quick one: give measured pEC50 for F1.245.2 human-murine chimeric antibody (antibody, human IgG1, kappa, V domains shown, Chimeric, human IgG1 / kappa) VH: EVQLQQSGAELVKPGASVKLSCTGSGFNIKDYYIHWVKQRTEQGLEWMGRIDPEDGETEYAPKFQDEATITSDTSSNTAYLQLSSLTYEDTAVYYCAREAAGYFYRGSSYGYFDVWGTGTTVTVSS VL: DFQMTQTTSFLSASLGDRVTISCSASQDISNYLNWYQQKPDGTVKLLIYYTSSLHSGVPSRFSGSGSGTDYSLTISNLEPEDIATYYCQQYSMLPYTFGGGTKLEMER 9.48

Quick one: give measured pEC50 for F1.280.1 human-murine chimeric antibody (antibody, human IgG1, kappa, V domains shown, Chimeric, human IgG1 / kappa) VH: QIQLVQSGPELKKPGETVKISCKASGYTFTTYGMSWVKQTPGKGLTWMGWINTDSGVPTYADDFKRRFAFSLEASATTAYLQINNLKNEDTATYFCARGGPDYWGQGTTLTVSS VL: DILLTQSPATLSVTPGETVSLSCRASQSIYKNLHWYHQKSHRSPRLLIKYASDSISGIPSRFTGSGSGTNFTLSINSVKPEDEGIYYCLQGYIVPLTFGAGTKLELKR 9.04
